meta.source: patent US20120301476A1

Molecular target: T1, human CAPRIN-1 protein on the cell surfaces of human cancer cell lines and in human cancer tissues (human, UniProt Q14444 2-709); also: test concentration or dose not given here
T1 sequence (looked up): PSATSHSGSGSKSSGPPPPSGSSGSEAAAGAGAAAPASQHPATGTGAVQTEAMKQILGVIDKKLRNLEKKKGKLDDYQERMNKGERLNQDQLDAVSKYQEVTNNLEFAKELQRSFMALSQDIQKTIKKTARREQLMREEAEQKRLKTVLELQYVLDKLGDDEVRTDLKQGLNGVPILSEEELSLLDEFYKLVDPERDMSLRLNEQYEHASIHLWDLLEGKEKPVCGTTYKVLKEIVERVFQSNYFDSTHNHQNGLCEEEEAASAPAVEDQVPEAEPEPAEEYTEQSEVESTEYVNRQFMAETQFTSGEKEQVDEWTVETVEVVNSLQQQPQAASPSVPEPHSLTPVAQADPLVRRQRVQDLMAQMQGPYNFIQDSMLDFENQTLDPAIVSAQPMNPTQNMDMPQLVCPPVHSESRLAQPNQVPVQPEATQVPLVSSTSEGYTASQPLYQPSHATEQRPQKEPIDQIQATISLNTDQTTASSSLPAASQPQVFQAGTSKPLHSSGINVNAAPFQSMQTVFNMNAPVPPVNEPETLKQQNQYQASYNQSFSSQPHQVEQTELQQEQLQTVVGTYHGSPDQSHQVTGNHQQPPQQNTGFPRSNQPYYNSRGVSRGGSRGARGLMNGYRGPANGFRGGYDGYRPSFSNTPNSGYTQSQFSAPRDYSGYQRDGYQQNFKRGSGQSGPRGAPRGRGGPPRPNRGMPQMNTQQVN
Assay: cell-based or functional assay
value type: cytotoxic activity (ADCC) against MNK28

Some solved cases for reference:
{"columns": ["binder", "value type", "test value"],
 "data": [
  ["anti-CAPRIN-1 mouse monoclonal antibody #5 (antibody, V domains shown, Mouse hybridoma antibody; detected with anti-mouse IgG) VH: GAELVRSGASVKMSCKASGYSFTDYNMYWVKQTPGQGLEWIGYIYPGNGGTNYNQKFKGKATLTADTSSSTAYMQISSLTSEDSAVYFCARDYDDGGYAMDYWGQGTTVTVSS VL: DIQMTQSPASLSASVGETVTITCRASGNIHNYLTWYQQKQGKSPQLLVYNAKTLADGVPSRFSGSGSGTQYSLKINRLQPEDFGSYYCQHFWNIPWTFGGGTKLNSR", "cytotoxic activity (ADCC) against MNK28", "≥ 15%"],
  ["anti-CAPRIN-1 mouse monoclonal antibody #6 (antibody, V domains shown, Mouse hybridoma antibody; detected with anti-mouse IgG) VH: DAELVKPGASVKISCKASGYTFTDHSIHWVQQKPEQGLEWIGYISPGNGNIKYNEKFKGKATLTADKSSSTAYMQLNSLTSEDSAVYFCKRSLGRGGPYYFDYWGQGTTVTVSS VL: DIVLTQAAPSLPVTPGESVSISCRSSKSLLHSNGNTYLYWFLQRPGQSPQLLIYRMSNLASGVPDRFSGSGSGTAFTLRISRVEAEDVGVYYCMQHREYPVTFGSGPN", "cytotoxic activity (ADCC) against MNK28", "≥ 15%"]
]}

# map each binder to its cytotoxic activity (ADCC) against MNK28
1. human-chicken chimeric antibody #1 having the chicken monoclonal antibody #1 variable region (antibody, V domains shown, also called anti-CAPRIN-1 antibody #1; human-chicken chimeric monoclonal antibody (#1); not shown: human IgG1 H-chain constant region; human IgG1 L-chain constant region) VH: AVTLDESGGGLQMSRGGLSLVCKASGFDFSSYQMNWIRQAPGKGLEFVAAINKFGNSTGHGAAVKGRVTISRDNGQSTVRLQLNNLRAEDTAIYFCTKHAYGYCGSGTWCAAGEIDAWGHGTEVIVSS VL: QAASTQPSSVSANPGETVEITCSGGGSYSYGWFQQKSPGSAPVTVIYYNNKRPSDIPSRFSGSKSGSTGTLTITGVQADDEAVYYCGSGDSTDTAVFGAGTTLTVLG
2. anti-CAPRIN-1 mouse monoclonal antibody #4 (antibody, V domains shown) VH: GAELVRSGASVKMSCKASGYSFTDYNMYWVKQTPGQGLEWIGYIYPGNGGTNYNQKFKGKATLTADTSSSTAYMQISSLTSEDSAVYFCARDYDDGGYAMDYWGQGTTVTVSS VL: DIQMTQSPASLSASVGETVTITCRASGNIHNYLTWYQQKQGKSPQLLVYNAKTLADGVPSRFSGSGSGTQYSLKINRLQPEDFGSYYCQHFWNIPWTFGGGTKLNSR

21.7%
≥ 15%
